Data provenance: ChEMBL document CHEMBL4513216

Quick reference for cytotoxicity at 10 µM among some molecules
experimental-details: Toxicity liver stage against HepG2, at 10uM
Format: cell-based
Design: test concentration 10 uM, cell line HepG2-A16-CD81EGFP
test-context: human, HepG2-A16-CD81EGFP cells; read-out: INHIBITION
Numeric only. Scale: %

Quickly give me recorded cytotoxicity at 10 µM for Cc1cccc2c1nc1n2[C@@H](CNC(=O)Cc2ccccc2)COC1
-5.12

Quickly give me recorded cytotoxicity at 10 µM for Cc1cc(N2CCC(O)CC2)nc(C2CCCN2C)n1 (stereo not given)
-1.89

Quickly give me recorded cytotoxicity at 10 µM for CCC(O)CN1CCN(C(=O)c2cccc3[nH]ncc23)CC1 (stereo not given)
-11.2

Quickly give me recorded cytotoxicity at 10 µM for CCCNC(=O)c1cnc(N(C)C)nc1COC
3.17

Quickly give me recorded cytotoxicity at 10 µM for Cc1cccnc1CCNCC1(O)CCCN(CC2CCCCC2)C1=O (stereo not given)
-203

Quickly give me recorded cytotoxicity at 10 µM for Cc1c(C)c(C)c2[nH]c(-c3cn(C4CCNCC4)nn3)nc2c1C
-0.966

Quickly give me recorded cytotoxicity at 10 µM for COCCOc1ccc(NC(=O)N2CCOC(C(N)=O)C2)cc1F (stereo not given)
-140
